assay-summary: Selectivity index, ratio of IC50 for equine BChE to IC50 for bovine AChE
Short version: Ratio IC50 at least 2 is satisfied, less is not satisfied.

>>> group_label("CN(C)c1cc[n+](Cc2ccc(CCc3ccc(C[n+]4ccc(N(C)C)cc4)cc3)cc2)cc1")
"satisfied"
>>> group_label("CN(c1ccccc1)c1cc[n+](Cc2cccc(C[n+]3ccc(N(C)c4ccccc4)cc3)c2)cc1")
"not satisfied"
>>> group_label("c1cc(C[n+]2ccc(NC3CCCCC3)cc2)ccc1CCCCc1ccc(C[n+]2ccc(NC3CCCCC3)cc2)cc1")
"satisfied"
>>> group_label("C(=C\\c1ccc(C[n+]2ccc(N3CCCCC3)cc2)cc1)/c1ccc(C[n+]2ccc(N3CCCCC3)cc2)cc1")
"not satisfied"
>>> group_label("c1cc(C[n+]2ccc(N3CCCC3)cc2)ccc1Cc1ccc(C[n+]2ccc(N3CCCC3)cc2)cc1")
"satisfied"
>>> group_label("OC1C[N+]2(Cc3ccc(CCc4ccc(C[N+]56CCC(CC5)C(O)C6)cc4)cc3)CCC1CC2 (stereo not drawn)")
"satisfied"
>>> group_label("c1cc(-c2ccc(C[n+]3ccc(N4CCCC4)cc3)cc2)ccc1C[n+]1ccc(N2CCCC2)cc1")
"satisfied"

# input # check: Ratio IC50 of c1cc(C[n+]2ccc(N3CCCCC3)cc2)ccc1Cc1ccc(C[n+]2ccc(N3CCCCC3)cc2)cc1 is greater than or equal to 2
# output not satisfied
